Reference source: patent US20240076386A1

- measuredTarget: T1, cynomolgus monkey E-selectin, cell-surface expressed (cynomolgus monkey, UniProt P16581 22-610 (human entry))
- T1 construct: also called CHO-cynomolgus monkey E-selectin cells; cynomolgus monkey CHO-E
- T1 chain: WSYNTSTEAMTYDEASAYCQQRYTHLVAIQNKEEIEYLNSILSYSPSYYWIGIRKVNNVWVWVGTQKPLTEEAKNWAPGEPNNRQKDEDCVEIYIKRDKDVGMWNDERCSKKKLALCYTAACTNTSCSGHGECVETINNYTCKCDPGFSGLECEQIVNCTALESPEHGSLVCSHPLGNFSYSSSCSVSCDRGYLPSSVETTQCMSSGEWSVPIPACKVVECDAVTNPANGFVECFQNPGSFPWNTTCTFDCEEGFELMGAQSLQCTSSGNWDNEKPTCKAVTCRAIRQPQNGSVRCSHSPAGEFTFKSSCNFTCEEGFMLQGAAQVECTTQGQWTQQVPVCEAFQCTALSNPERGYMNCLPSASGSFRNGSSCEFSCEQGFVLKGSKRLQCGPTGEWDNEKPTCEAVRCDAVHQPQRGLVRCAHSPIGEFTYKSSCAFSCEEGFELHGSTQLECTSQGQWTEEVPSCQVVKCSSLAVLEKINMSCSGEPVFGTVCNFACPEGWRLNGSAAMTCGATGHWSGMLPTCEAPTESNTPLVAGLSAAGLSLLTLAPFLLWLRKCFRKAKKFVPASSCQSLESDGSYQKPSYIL
- protocolDescription: competition ELISA on CHO cells vs sialyl Lewis ligand-PAA-biotin/SA-HRP
Threshold-based label: IC50 under 2 nM gives criterion met, IC50 not under 2 nM gives criterion not met.

Example results:
| binder | labelClass |
| --- | --- |
| optimized anti-E-selectin antibody 1444 (antibody, human IgG1, kappa, V domains shown, effector-null human IgG1, kappa) VH: EVQLVESGGGLVQPGGSLRLSCAASGYAIRSAYMHWVRQAPGKGLEWVARIDPANGNTIYVDSVTGRFTISADNAKNSAYLQMNSLRAEDTAVYYCAMDLYSTSEYWGQGTLVTVSS VL: DIQMTQSPSSLSASVGDRVTITCKTSQNIERYLNWYQQKPGKAPKLLIYAASSLQSGVPSRFSGSGSGTDFTLTISSLQPEDFATYFCLQDNAWPLTFGQGTKVEIKR | criterion not met |
| optimized anti-E-selectin antibody 1282 (antibody, human IgG1, kappa, V domains shown, effector-null human IgG1, kappa) VH: EVQLVESGGGLVQPGGSLRLSCAASGYAIRSAYMHWVRQAPGKGLEWVARIDPANGNTIYVDSVEGRFTISADNAKNSAYLQMNSLRAEDTAVYYCAMDLYSTSEYWGQGTLVTVSS VL: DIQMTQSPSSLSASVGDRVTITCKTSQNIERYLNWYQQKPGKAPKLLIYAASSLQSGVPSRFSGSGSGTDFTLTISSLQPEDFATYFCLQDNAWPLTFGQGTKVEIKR | criterion met |

Data request: Is 2 nM strictly greater than the binder's reported IC50? binder: optimized anti-E-selectin antibody 1284 (antibody, human IgG1, kappa, V domains shown, effector-null human IgG1, kappa) VH: EVQLVESGGGLVQPGGSLRLSCAASGYAIRSAYMHWVRQAPGKGLEWVARIDPANGNTIYVESVEGRFTISADNAKNSAYLQMNSLRAEDTAVYYCAMDLYSTSEYWGQGTLVTVSS VL: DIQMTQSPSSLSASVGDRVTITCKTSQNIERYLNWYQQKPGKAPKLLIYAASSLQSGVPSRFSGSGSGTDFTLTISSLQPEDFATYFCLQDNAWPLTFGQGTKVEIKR
Data returned: criterion met

Data request: Here's an entry: anti-E-selectin antibody 0164 chimera (antibody, human IgG1, kappa, V domains shown, rat VH/VL on effector-null human IgG1 and human kappa) VH: EVQLQQSGAEFGKPGTSVKLSCKVSGYNIRSSYMHWVNQRPGKGLEWIGRIDPANGNTIYAEKFKIKAILTADSSSNTAYMQLSQLKSDDTAIYFCAMDLYSTSEYWGQGVMVTVSS VL: DIQMTQSPSFLSASVGDRVTINCKTSQNINRYLNWYQQKLGEAPKLLIYNANSLQTGIPSRFSASGSGTDFTLTINSLQPEDVATYFCLQDNSWPLTFGSGTKLEIKR . Is its IC50 below 2 nM?
Data returned: criterion not met

Data request: Just wondering, is IC50 of optimized anti-E-selectin antibody 1448 (antibody, human IgG1, kappa, V domains shown, effector-null human IgG1, kappa) VH: EVQLVESGGGLVQPGGSLRLSCAASGYAIRSAYMHWVRQAPGKGLEWVARIDPANGNTIYVDSVKERFTISADNAKNSAYLQMNSLRAEDTAVYYCAMDLYSTSEYWGQGTLVTVSS VL: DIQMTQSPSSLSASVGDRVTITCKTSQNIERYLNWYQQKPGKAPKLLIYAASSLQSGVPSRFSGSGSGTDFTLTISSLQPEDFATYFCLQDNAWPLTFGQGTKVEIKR below 2 nM?
Data returned: criterion met
